Property: pIC50; scope: individual molecules
- Target Or Test System: human NLRP3 (Homo sapiens (Human), UniProt Q96P20)
- Sequence (Q96P20 whole entry): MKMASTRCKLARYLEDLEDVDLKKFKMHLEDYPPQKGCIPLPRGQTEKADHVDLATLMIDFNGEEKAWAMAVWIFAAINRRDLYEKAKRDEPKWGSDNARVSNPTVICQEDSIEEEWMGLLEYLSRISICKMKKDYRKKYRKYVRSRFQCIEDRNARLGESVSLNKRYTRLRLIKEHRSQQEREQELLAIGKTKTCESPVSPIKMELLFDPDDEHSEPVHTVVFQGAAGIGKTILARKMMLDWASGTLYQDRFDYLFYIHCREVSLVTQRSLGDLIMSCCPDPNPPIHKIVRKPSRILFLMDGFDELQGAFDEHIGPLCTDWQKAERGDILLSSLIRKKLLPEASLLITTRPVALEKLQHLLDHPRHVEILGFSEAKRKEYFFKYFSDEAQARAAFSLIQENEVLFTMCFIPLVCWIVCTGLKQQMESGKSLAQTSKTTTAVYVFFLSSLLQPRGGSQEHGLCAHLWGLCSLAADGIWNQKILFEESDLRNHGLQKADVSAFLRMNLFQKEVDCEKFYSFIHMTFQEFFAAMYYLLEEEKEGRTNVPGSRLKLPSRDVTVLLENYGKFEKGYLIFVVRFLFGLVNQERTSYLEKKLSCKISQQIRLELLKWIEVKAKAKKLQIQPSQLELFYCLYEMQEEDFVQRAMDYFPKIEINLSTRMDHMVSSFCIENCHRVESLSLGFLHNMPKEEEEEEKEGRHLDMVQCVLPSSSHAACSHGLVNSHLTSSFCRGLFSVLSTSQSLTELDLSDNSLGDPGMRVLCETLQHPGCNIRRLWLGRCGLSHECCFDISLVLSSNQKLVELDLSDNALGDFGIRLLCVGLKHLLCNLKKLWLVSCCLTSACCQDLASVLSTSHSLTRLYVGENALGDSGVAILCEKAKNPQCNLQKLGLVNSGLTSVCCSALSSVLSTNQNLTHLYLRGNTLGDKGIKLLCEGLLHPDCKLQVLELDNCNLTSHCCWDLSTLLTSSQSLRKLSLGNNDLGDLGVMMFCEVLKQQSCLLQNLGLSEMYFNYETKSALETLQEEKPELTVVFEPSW
- Test Name: Scintillation Proximity (SPA) NLRP3 Assay: displacement of 3H-MCC950
- Type: binding
- Condition Notes: displacement of 3H-MCC950; read-out: SPA IC50
pIC50: −log10 of the molar value.
Readout Label: pIC50

* C[C@@H]1C[C@H](NC(=O)C2(c3ccc(C(F)(F)F)cc3F)CC2)[C@H]2CC[C@@H]1N2c1nnn[nH]1 [84B*] | 4.30 to 5.00
* C[C@@H]1CCN(c2nnn[nH]2)C[C@H](NC(=O)C2(c3ccc(OC(F)(F)F)cc3F)CC2)C1 (single isomer, unassigned) [64A*] | > 6.00
* C[C@@H]1CCN(c2nnn[nH]2)C[C@H](NC(=O)C2(c3ccc(Br)cc3)CC2)C1 (single isomer, unassigned) [59A*] | > 6.00
* C[C@H]1CC[C@@H](NC(=O)C2(c3ccc(C4CC4)cc3O)CC2)CN(c2nnn[nH]2)C1 (single isomer, unassigned) [91A*] | > 6.00
* C[C@H]1C[C@H](NC(=O)C2(c3ccc(OC(F)F)cc3O)CC2)[C@@H]2CC[C@H]1N2c1nnn[nH]1 [43D*] | 4.30 to 5.00
* C[C@@H]1CCN(c2nnn[nH]2)C[C@@H](NC(=O)C2(c3ccc(C(F)(F)F)c(F)c3O)CC2)C1 (single isomer, unassigned) [31B*] | > 6.00
* C[C@H]1CCN(c2nnn[nH]2)C[C@@H](NC(=O)C2(c3ccc(C4CC4)c(F)c3O)CC2)C1 (single isomer, unassigned) [32D*] | 4.30 to 5.00
* O=C(N[C@@H]1CC[C@H]2CC[C@@H]1N2c1nnn[nH]1)C1(c2ccc(Cl)cc2O)CC1 [75C*] | > 6.00
* C[C@H]1CCN(c2nnn[nH]2)C[C@@H](NC(=O)C2(c3ccc(C(F)(F)F)cc3)CC2)C1 (single isomer, unassigned) [61D*] | 4.30 to 5.00
* C[C@H]1C[C@@H](NC(=O)C2(c3ccc(C4CC4(F)F)cc3)CC2)[C@@H]2CC[C@H]1N2c1nnn[nH]1 (single isomer, unassigned) [37C*] | < 4.00
* C[C@@H]1CCN(c2nnn[nH]2)C[C@H](NC(=O)C2(c3ccc(C4CC4)c(F)c3O)CC2)C1 (single isomer, unassigned) [32A*] | > 6.00
* C[C@H]1C[C@H](NC(=O)C2(c3ccc(OC(F)(F)F)cc3)CC2)[C@@H]2CC[C@H]1N2c1nnn[nH]1 [82D*] | < 4.00
* C[C@H]1CCN(c2nnn[nH]2)C[C@@H]1NC(=O)C1(c2ccc(Cl)cc2)CC1 [Compound 49C] | 5.00 to 6.00
* C[C@H]1C[C@@H](NC(=O)C2(c3ccc(C(F)(F)F)cc3)CC2)[C@@H]2CC[C@H]1N2c1nnn[nH]1 [79C*] | 4.30 to 5.00
